# System: diphosphomevalonate decarboxylase (Streptococcus pneumoniae D39)
# assay: S. pneumoniae DPM-DC inhibitors, primary screen, biochemical, PK/LDH-coupled NADH fluorescence (AID 556)
# test.conditions: purified DPM-DC, at 10 µM
The whole screen tested about 65,000 compounds, of which about 320 (0.49%) were called active.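 Rule for the calls: active = the 320 compounds with the highest percent inhibition in the single-dose primary screen, excluding strongly autofluorescent ones (cut at about 32% in these data); inactive = the rest, inconclusive results apart.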 The sample as a whole holds a higher share of actives than the screen did.
Assign a class; possible classes are 1 = active, -1 = inactive

Request: What call does the record list for "O=C(CNC(=O)c1ccco1)OCC(=O)c1ccccc1" ?
Result: -1

Request: What call does the record list for CC1(C)CC(CCC(=O)Nc2ccccc2Cl)C(=O)O1 (configuration not stated) ?
Result: -1

Request: What call does the record list for "Cc1oc(-c2ccccc2F)nc1CS(=O)(=O)CC(=O)NCCCN(C)C1CCCCC1" ?
Result: -1

Request: What call does the record list for CCN(CC)CCNC(=O)C1c2ccccc2C(=O)N(C)C1c1cn(C)c2ccccc12 (configuration not stated) ?
Result: -1

Request: What call does the record list for COc1cccc(C2/C(=C(/O)c3ccncc3)C(=O)C(=O)N2CCCN(C)C)c1 (configuration not stated) ?
Result: -1

Request: What call does the record list for "Cn1c(=NC(=O)c2ccco2)sc2cccc(F)c21" ?
Result: 1

Request: What call does the record list for "O=C(O)CCCC(=O)Nc1ccccc1-n1ccnc1" ?
Result: -1

Request: What call does the record list for "CCOC(=O)CNC(=O)CSc1nnc(COc2ccc(Cl)cc2)n1CC" ?
Result: -1

Request: What call does the record list for "CCS(=O)(=O)n1nc(-c2ccccc2)nc1SCc1ccccc1" ?
Result: -1

Request: What call does the record list for "Cn1c(SCC(=O)Nc2cccc(O)c2)nnc1-c1ccc(S(=O)(=O)N2CCOCC2)cc1" ?
Result: -1

Request: What call does the record list for COc1ccc(OCCCC(=O)Nc2nnc(C3CCCO3)s2)cc1 (configuration not stated) ?
Result: -1

Request: What call does the record list for Cc1c(C(=O)N2CC(C)OC(C)C2)sc2nc(-c3ccccc3)cn12 (configuration not stated) ?
Result: -1

Request: What call does the record list for "Cc1cc(NC(=O)CSc2nnc(-c3ccc(Cl)s3)o2)no1" ?
Result: -1

Request: What call does the record list for COc1ccc2[nH]c(=O)c(CN(CC3CCCO3)C(=O)Nc3ccccc3)cc2c1 (configuration not stated) ?
Result: 1

Request: What call does the record list for "CCCn1c(SCC(=O)Nc2cccc(C(=O)OCC)c2)nnc1-c1ccoc1C" ?
Result: -1
